targetOfAssay: FRMPD4, Q14CM0
Sequence (Q14CM0 67-160): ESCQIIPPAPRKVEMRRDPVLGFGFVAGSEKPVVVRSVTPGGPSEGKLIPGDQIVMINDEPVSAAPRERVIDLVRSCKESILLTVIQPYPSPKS
methodSummary: holdup assay
Set-up: key: below the threshold = too weak to quantify, mostly under pKd 3.1 to 4
cond: plain residues with an end cap or a label only (N-terminal biotin on a linker: ado-ado)
// pKd lookup, one value per entry
metric: pKd

1) QKNKDKEYYV [NRXN3_rs746444206, Q9Y4C0]    4.18
2) GFGEERESIL [KIDINS220, Q9ULH0]    3.92
